Target: T1, hRGMa-His (human, UniProt Q96B86 48-422, limits assumed)
T1 construct: also called human RGMa (BIAcore); not shown: His tag
T1 sequence: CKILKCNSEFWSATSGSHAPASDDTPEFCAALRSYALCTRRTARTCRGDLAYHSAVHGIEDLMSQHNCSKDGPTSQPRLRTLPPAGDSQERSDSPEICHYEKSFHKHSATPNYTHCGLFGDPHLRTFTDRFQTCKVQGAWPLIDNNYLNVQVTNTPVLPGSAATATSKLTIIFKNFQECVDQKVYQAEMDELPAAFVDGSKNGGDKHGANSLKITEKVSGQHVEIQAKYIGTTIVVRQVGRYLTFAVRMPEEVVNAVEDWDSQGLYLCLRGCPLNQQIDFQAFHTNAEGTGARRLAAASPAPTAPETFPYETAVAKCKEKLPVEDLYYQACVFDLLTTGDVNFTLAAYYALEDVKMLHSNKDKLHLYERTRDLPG
Test: BIAcore
Test Readout: koff (s⁻¹)
Write it as a number; the unit s⁻¹ goes unstated.

Take a look at these entries with their results.
| Binder | Unit | koff |
| --- | --- | --- |
| AE12-1-L (antibody, V domains shown, AE12-1 variant; IgG; also called AE-12-L) VH: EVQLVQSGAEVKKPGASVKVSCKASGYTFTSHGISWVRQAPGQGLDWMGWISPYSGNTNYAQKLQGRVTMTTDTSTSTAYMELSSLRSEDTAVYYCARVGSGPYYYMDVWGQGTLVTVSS VL: QSALTQPRSVSGSPGQSVTISCTGTSSSVGDSIYVSWYQQHPGKAPKLMLYDVTKRPSGVPDRFSGSKSGNTASLTISGLQAEDEADYYCLSYAGTDTLFGGGTKVTVL | s⁻¹ | 0.00025 |
| AE12-1-F (antibody, V domains shown, AE12-1 variant, Cys of VL CDR-L3 replaced; IgG) VH: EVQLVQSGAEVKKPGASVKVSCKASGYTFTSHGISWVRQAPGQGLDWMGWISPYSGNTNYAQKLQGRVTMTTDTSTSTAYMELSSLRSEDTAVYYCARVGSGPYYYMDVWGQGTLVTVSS VL: QSALTQPRSVSGSPGQSVTISCTGTSSSVGDSIYVSWYQQHPGKAPKLMLYDVTKRPSGVPDRFSGSKSGNTASLTISGLQAEDEADYYCFSYAGTDTLFGGGTKVTVL | s⁻¹ | 3.9e-05 |

Now take the following binder into account.
stdin: Report koff for AE12-1-K (antibody, V domains shown, AE12-1 variant; IgG) VH: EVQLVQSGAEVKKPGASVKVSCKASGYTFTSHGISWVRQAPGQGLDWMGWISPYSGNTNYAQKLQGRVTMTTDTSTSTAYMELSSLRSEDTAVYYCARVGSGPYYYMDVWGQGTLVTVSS VL: QSALTQPRSVSGSPGQSVTISCTGTSSSVGDSIYVSWYQQHPGKAPKLMLYDVTKRPSGVPDRFSGSKSGNTASLTISGLQAEDEADYYCKSYAGTDTLFGGGTKVTVL please.
stdout: 0.0003

Data provenance is patent US20160326240A1.
